Assay: Quantitative High-Throughput drug screen in 47 multiple myeloma cell lines against the NCATS MIPE library collection: XG1_PLB cell viability assay (AID 1919866); also: nearly all actives have a fitted effect of over 35% in size
Conditions: CellTiter-Glo ATP, 48 h; series mostly up to 45.8 µM
Inconclusive results are not listed. The source made the active and inactive calls. Calls follow the shape of the dose curve; as a rule, active = well fitted cell-killing curve with a large enough effect; inconclusive = small, poorly fitted or top-dose-only effect, or effect the other way; inactive = no such curve, though single readings can be large or run the other way.
Permitted responses: active, inactive

Consider the worked cases shown below.
| chemical smiles | label |
| --- | --- |
| Nc1nc2c(c(=O)[nH]1)N(C=O)[C@H](CNc1ccc(C(=O)N[C@@H](CCC(=O)O)C(=O)O)cc1)CN2 | inactive |
| O=C(Nc1nnc(-c2ccco2)o1)c1cc(-c2ccccc2)nc2ccccc12 | active |

IN: Call for entry C[C@H](NC(=O)Cc1cc(F)cc(F)c1)C(=O)N[C@H](C(=O)OC(C)(C)C)c1ccccc1 :
OUT: inactive
